# details: in ethyl acetate, 278.15 K

{"structureString": "N#Cc1ccc2c(c1)OCO2", "solubility (mole fraction)": 0.0892}

###

# details: in 2-methoxyethanol, 303.15 K
parameterMeasured: solubility (mole fraction)

{"structureString": "N#Cc1ccc2c(c1)OCO2", "valueMeasured": 0.119}

###

# details: in acetone, 313.15 K

{"structureString": "N#Cc1ccc2c(c1)OCO2", "solubility (mole fraction)": 0.269}

###

# details: in methanol, 313.15 K

{"structureString": "N#Cc1ccc2c(c1)OCO2", "solubility (mole fraction)": 0.0387}

###

# details: in methanol, 293.15 K
parameterMeasured: solubility (mole fraction)

{"structureString": "N#Cc1ccc2c(c1)OCO2", "parameterMeasured": "solubility (mole fraction)", "valueMeasured": 0.0157}

###

# details: in n-propyl acetate, 323.15 K
parameterMeasured: solubility (mole fraction)

{"structureString": "N#Cc1ccc2c(c1)OCO2", "parameterMeasured": "solubility (mole fraction)", "valueMeasured": 0.31}
